- System: CD2F1 mice, L1210 leukemia ip, survival T/C
- Experimental Protocol: NCI In Vivo Anticancer Drug Screen. Data for tumor model L1210 Leukemia (intraperitoneal) in CD2F1 (CDF1) mice
- Run Conditions: endpoint: median survival time; dose: 100.0 mg/kg/injection; schedule: Q04DX002 (ip); vehicle: saline with Tween-80; higher = longer survival
Inconclusive results and toxic doses are left out.
Outcome Measure: T/C

INSERT INTO measurements (compound, recorded_measurement) VALUES
  ('Cc1ccc(S(=O)(=O)N/N=C/Cc2c(C(C)C)cc(C(C)C)cc2C(C)C)cc1', '100 % of control'),
  ('COC(=O)C12C=CC=CC3C(C=C1)NC(=O)C32 (centres undefined)', '100 % of control'),
  ('O=C(CC(=O)C(F)(F)F)c1cccs1.O=C(CC(=O)C(F)(F)F)c1cccs1.O=C(CC(=O)C(F)(F)F)c1cccs1.[Sm]', '88 % of control'),
  ('Cc1cccc2c1NC(=O)C2=O', '94 % of control');

###

- System: CD2F1 mice, L1210 leukemia ip, survival T/C
- Experimental Protocol: NCI In Vivo Anticancer Drug Screen. Data for tumor model L1210 Leukemia (intraperitoneal) in CD2F1 (CDF1) mice
- Run Conditions: endpoint: mean survival time; dose: 200.0 mg/kg/injection; schedule: Q01DX009 (ip); vehicle: saline with Tween-80; higher = longer survival
Toxic doses and inconclusive results are not listed.
In this section we review reported T/C values for a set of compounds.
Outcome Measure: T/C

INSERT INTO assay_data (compound, recorded_measurement) VALUES
  ('COc1ccc(OC)c(C=NCCN=Cc2cc(OC)ccc2OC)c1', '95 % of control'),
  ('CN(C)c1ccc(CN2CCCN(Cc3ccc(N(C)C)cc3)C2c2ccncc2)cc1', '95 % of control'),
  ('O=C(NC(Cc1c[nH]c2ccccc12)C(=O)O)c1ccccc1 (stereo unspecified)', '100 % of control'),
  ('Cc1[nH]c2ccccc2c1C(C)(Cc1cc2ccccc2[nH]1)c1ccncc1 (stereo unspecified)', '100 % of control'),
  ('c1ccc2c(c1)CN(C1CCCCC1)CO2', '97 % of control'),
  ('CC(C)(OC(=O)C(NC=O)C(C)(C)S)OC(=O)C(NC=O)C(C)(C)S (stereo unspecified)', '101 % of control');

###

- System: CD2F1 mice, L1210 leukemia ip, survival T/C
- Experimental Protocol: NCI In Vivo Anticancer Drug Screen. Data for tumor model L1210 Leukemia (intraperitoneal) in CD2F1 (CDF1) mice
- Run Conditions: endpoint: mean survival time; dose: 150.0 mg/kg/injection; schedule: Q01DX001 (ip); vehicle: saline; higher = longer survival
Toxic doses and inconclusive results are not listed. Non-standard residues stand in square brackets, D forms with d. Residues, ends and D or L forms follow the SMILES beside them. ξ: configuration not given here. *: point of attachment. ONp = O=[N+]([O-])c1ccc(O*)cc1; ξS = NC(CO)C(=O)O
T/C overview
Outcome Measure: T/C

INSERT INTO assay_data (molecule, recorded_measurement) VALUES
  ('Cn1c(/C=C/C(=O)O)cc2ccccc21', '106 % of control'),
  ('OCCN1CCCCCCC1', '102 % of control'),
  ('CC(=O)Nc1nc(C)c(S(=O)(=O)O)s1', '93 % of control'),
  ('CCCCCCCCCCCCC1C(=O)NC(=O)NC1=O', '99 % of control'),
  ('COc1c2c(cc3c1C(O)N(C)CC3)OCO2 (stereo unspecified)', '110 % of control'),
  ('CC(NC(=O)C(CSC(c1ccccc1)(c1ccccc1)c1ccccc1)NC(c1ccccc1)(c1ccccc1)c1ccccc1)C(=O)O (stereo unspecified)', '96 % of control'),
  ('C=CCN(CC=C)C1=CC(=O)C(=O)c2ccccc21', '100 % of control'),
  ('CCOC1(OCC)C2C=CC1C(C#N)(C#N)C2(C#N)C#N', '104 % of control'),
  ('O=S1(=O)CCC1', '97 % of control'),
  ('NC(CO)C(=O)NCC(=O)Oc1ccc([N+](=O)[O-])cc1 (stereo unspecified) (H-[ξS]-Gly-ONp)', '102 % of control'),
  ('C=CCC(c1ccccc1)(c1ccccc1)c1ccccc1', '95 % of control');

Each recorded value in this set is attributed to PubChem BioAssay AID256.
